Each recorded value in this set is attributed to ChEMBL document CHEMBL1133452.

biological target: Cyclin-dependent kinase 1/cyclin B (Homo sapiens, UniProt O95067+P06493+P14635+Q8WWL7); assay: Inhibition of Cyclin-dependent kinase 1 enzyme from starfish oocytes
Sequence (P06493 whole entry): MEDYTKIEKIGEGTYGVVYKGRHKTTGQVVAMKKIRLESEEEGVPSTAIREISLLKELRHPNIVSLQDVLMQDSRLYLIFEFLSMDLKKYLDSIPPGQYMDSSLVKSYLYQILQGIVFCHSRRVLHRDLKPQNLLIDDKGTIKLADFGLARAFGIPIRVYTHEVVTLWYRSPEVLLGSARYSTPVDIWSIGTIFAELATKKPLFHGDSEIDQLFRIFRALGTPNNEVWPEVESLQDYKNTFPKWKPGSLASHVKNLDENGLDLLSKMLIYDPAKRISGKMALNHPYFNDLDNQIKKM
Sequence (P14635 whole entry): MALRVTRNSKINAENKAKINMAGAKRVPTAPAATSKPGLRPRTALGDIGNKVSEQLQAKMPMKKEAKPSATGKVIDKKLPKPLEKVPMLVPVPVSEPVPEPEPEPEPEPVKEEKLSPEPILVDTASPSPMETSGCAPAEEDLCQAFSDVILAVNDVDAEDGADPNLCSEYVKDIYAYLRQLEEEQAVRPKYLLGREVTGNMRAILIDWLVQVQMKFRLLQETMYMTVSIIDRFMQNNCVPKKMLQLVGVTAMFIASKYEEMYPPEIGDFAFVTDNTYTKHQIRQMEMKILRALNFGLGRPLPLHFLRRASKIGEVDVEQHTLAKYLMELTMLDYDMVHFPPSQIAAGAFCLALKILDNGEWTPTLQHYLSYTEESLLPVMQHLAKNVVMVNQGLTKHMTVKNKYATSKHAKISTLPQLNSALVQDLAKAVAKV
Sequence (Q8WWL7 whole entry): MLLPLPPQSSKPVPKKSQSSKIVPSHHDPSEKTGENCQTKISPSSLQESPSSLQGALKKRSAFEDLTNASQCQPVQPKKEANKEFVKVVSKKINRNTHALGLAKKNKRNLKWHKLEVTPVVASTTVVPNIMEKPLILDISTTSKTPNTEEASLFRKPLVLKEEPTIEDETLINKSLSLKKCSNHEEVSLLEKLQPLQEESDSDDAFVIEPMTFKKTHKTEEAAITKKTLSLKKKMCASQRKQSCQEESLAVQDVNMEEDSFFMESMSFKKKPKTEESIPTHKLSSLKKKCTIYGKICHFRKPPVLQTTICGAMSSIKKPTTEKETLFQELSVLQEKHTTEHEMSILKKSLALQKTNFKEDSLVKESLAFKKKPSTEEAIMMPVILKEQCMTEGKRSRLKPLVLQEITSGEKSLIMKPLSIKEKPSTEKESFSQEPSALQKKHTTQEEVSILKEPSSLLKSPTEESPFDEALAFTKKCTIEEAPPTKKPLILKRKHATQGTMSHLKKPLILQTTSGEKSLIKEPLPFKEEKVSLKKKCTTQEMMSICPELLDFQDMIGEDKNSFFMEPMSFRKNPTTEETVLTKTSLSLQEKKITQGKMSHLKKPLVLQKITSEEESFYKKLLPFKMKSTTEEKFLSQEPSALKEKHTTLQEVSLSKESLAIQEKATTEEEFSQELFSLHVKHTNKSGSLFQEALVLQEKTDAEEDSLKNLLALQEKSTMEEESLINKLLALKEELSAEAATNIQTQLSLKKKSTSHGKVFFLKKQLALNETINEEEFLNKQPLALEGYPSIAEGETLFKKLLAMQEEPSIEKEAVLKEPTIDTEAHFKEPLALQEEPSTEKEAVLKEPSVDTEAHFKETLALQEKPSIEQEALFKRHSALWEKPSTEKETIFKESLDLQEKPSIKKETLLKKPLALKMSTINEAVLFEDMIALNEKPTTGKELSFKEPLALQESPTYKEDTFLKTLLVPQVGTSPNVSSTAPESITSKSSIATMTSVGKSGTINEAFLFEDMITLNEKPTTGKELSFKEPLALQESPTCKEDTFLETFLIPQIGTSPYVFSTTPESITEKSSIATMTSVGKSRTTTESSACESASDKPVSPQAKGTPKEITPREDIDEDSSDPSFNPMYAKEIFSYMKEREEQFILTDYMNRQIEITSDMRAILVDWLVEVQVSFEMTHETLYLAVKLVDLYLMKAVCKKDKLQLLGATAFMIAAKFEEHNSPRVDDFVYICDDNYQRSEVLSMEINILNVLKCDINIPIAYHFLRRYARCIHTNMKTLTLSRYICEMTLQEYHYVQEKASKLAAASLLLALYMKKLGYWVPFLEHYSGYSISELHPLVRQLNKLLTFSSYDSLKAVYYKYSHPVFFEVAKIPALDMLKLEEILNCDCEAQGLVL
Sequence (O95067 whole entry): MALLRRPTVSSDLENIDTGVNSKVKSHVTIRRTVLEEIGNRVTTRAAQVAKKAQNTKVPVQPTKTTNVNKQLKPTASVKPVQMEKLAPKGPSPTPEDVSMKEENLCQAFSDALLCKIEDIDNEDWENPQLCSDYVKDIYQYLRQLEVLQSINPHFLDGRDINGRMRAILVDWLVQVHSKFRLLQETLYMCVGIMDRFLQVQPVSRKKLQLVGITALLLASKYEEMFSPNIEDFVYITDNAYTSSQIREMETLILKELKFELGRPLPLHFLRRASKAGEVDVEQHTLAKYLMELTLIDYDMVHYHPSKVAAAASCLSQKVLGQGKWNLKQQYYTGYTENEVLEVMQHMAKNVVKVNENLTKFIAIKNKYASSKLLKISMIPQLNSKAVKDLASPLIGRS
pIC50: −log10 of the molar value.
quantity.measured: pIC50

Complete the entry with pIC50 for Nc1cc(OCC2CCCCC2)nc(N)n1
< 5.00
